Molecular target: T1, recombinant human MASP1 active protease (amino acids 297-699, C-terminal His Tag) (human, UniProt P48740 297-699)
T1 sequence: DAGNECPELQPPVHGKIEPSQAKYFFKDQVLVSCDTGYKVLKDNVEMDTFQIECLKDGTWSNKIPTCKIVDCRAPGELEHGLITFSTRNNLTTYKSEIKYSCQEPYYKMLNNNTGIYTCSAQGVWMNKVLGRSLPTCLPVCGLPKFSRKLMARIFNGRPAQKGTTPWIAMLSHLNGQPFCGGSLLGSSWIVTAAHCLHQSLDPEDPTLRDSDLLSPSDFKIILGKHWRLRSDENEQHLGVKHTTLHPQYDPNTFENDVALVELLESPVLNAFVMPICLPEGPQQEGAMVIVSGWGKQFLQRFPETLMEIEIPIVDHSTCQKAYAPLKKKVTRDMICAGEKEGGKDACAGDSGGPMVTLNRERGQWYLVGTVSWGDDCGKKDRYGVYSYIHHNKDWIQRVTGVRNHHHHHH
Test: cell-based or functional assay
Bridge positions count the residues as written; N and C are the ends. Square brackets hold non-standard residues; d marks the D form. Ends that are not written are not given here. tBuAla = CC(C)(C)C[C@H](N)C(=O)O; Pen = CC(C)(S)[C@H](N)C(=O)O
measurement_name: human MASP1 IC50
Answers without a unit are incomplete; give the number and then its unit.

What does the record list as human MASP1 IC50 for [2‑(Diethylamino)acetyl]ICSRS[tBuAla]PPI[Pen]IPD-NH2 (disulfide 3-11) [(2-(Diethylamino)acetyl)-IC+SRS-((tBu)A)-PPI-(Pen)+IPD-NH2] ?
3.5 nM

Need human MASP1 IC50, item AICSRS[tBuAla]PPI[Pen]IP[dE]-NH2 (disulfide 3-11; N-terminus assumed; SMILES CC[C@H](C)[C@H](NC(=O)[C@H](C)N)C(=O)N[C@H]1CSSC(C)(C)[C@@H](C(=O)N[C@H](C(=O)N2CCC[C@H]2C(=O)N[C@H](CCC(=O)O)C(N)=O)[C@@H](C)CC)NC(=O)[C@H]([C@@H](C)CC)NC(=O)[C@@H]2CCCN2C(=O)[C@@H]2CCCN2C(=O)[C@H](CC(C)(C)C)NC(=O)[C@H](CO)NC(=O)[C@H](CCCNC(=N)N)NC(=O)[C@H](CO)NC1=O) [AIC+SRS-((tBu)A)-PPI-(Pen)+IPe-NH2]
1.4 nM
